measured_on: T1, IL10Rα/IL2Rγ receptor (human) (UniProt Q13651)
T1 sequence (looked up) 1: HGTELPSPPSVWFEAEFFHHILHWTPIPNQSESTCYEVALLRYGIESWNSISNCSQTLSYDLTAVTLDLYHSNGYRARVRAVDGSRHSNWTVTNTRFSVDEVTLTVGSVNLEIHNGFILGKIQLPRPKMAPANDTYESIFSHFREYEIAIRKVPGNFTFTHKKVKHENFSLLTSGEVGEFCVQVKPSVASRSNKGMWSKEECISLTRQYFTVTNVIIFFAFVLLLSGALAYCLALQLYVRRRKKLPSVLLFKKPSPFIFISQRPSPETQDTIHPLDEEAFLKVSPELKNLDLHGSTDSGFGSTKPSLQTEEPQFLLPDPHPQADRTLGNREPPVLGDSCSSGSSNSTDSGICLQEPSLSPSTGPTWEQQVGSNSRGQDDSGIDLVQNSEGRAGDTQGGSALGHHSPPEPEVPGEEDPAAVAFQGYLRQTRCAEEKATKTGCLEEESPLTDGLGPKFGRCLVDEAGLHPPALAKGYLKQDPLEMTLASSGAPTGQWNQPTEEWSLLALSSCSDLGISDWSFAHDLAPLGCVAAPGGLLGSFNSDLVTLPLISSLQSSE
T1 sequence (looked up) 2: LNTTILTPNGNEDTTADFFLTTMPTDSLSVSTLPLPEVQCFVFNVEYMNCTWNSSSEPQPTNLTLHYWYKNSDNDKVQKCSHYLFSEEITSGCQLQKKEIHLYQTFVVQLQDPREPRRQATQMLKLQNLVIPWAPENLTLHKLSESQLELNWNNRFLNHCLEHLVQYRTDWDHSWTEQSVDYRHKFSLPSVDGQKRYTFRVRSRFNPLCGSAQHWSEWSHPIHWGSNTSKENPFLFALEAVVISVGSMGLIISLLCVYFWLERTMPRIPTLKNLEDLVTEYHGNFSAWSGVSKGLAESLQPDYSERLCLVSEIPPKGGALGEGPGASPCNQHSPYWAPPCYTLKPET
test_name: cell-based or functional assay
Catalogue of binders with associated Granzyme B secretion, CD8 T cells, at 0.1 µM
Expressed in pg/mL, but write only the number.

1) hIL10Ra_VHH14 - hIL2Rg_VHH19, linker GGSGGS, tag his (bispecific antibody, not shown: small tags and cut ends) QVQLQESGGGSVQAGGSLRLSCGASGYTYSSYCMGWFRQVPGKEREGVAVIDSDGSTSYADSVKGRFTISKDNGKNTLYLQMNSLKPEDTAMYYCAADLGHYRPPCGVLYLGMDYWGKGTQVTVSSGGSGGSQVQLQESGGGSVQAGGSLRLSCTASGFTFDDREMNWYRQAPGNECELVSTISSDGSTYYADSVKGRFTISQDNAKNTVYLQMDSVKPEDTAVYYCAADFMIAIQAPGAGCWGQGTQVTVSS :: 62300

Any idea what its Granzyme B secretion, CD8 T cells, at 0.1 µM is? The binder is hIL10Ra_VHH14 - hIL2Rg_VHH19, No linker, tag his (bispecific antibody, not shown: small tags and cut ends) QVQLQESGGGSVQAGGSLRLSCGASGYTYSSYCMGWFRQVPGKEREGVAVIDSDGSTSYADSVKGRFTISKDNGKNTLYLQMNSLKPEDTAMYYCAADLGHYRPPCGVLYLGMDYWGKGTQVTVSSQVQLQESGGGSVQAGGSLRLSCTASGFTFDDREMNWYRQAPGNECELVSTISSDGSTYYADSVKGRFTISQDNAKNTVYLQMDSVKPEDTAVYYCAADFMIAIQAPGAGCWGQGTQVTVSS
54800

Origin of the recorded values: patent US20250163162A1
